Attribution: ChEMBL document CHEMBL4814074

# Tested on: Vero
# Experiment notes: Cytotoxicity against African green monkey Vero cells measured after 5 days
# Type: cell-based
# Condition description: chlorocebus sabaeus, vero, 120 h; time 5 day
Reported endpoint: CC50

The measured CC50 that Cc1c(-c2ccc(OC(C)C)cc2)ccc2ncc(-c3ccc(OC(C)C)cc3)n12 showed for Vero is 4.19 µM

---

For each of the compounds below, state its inhibition at 20 µM.
# Tested target: CYP3A4 (Homo sapiens)
# Sequence (P08684 whole entry): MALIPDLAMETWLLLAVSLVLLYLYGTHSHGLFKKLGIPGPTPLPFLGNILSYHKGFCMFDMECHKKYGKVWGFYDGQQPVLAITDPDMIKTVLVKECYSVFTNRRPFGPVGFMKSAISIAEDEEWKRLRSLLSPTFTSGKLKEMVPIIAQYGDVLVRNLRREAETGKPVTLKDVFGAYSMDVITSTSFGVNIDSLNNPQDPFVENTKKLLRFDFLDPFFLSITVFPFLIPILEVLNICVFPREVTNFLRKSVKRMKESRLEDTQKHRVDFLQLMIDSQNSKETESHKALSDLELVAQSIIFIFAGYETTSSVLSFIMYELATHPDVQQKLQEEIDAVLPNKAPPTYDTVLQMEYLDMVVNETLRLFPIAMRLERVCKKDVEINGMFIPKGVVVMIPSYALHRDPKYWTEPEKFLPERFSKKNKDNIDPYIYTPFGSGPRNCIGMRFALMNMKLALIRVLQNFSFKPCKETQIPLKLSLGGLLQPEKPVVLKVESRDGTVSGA
# Experiment notes: Inhibition of CYP3A4 (unknown origin) at 20 uM
# Type: ADME

Use the examples below as a reference point.
For record Cc1cc2ncn(-c3ccc(OC(C)(C)C)cc3)c2cc1-c1ccc(OC(C)(C)O)cc1 the listed inhibition at 20 µM is < 21%

The compound listed as Cc1cc2ncn(-c3ccc(OC(C)C)cc3)c2cc1-c1ccc(OC(C)C)cc1 has a reported inhibition at 20 µM of 44%

Entry under test: Cc1cc2ncc(-c3ccc(OC(C)C)cc3)n2cc1-c1ccc(OC(C)C)cc1 . Its inhibition at 20 µM was < 21%

Further cases:
inhibition at 20 µM measured on Cc1cc2ncc(-c3ccc(OC(C)(C)C)cc3)n2cc1-c1ccc(OC(C)C)cc1 = < 21%

---

# Experiment notes: Cytotoxicity against African green monkey Vero cells measured after 5 days
# Type: cell-based
# Condition description: chlorocebus sabaeus, Vero cells; time 5 day
Reported endpoint: CC50 at 120 h (µM)
One number for each entry, in µM.

Measured CC50 at 120 h of CC(C)Oc1ccc(-c2ccn3cnc(-c4ccc(OC(C)C)cc4)c3c2)cc1 : 7.54

---

Kindly supply the reported inhibition at 3 µM values for the records listed here.
# Tested target: hERG (KCNH2) (Homo sapiens)
# Sequence (Q12809 whole entry): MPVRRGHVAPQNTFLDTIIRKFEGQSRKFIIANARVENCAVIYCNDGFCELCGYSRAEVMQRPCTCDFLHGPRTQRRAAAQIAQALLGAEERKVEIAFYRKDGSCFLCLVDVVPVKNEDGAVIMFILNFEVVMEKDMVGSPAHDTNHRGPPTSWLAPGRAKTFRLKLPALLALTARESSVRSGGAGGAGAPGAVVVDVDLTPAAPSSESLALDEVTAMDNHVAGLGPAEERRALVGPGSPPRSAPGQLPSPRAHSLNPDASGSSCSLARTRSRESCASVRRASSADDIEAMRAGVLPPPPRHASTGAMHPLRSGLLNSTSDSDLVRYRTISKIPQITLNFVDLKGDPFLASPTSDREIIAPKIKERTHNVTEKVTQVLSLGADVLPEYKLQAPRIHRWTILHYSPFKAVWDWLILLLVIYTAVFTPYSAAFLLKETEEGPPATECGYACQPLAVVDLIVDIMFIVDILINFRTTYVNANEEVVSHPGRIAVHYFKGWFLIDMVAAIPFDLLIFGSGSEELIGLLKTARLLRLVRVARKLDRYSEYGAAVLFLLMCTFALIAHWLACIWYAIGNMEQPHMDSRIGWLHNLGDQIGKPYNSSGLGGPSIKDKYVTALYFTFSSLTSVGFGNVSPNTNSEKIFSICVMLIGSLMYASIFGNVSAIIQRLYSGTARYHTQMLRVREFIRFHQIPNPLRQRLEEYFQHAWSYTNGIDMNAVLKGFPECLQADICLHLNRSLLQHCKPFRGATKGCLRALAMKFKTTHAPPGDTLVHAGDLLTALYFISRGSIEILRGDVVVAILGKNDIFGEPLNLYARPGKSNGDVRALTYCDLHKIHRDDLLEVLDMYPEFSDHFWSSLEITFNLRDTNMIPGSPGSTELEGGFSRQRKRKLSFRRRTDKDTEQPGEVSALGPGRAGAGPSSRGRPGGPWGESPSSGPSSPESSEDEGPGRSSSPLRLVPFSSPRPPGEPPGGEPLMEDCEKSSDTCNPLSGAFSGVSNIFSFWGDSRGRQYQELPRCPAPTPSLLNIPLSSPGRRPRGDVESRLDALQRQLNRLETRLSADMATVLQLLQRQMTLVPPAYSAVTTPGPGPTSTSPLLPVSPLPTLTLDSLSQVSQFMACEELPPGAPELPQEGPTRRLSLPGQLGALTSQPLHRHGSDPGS
# Experiment notes: Inhibition of human ERG at 3 uM relative to control
One number for each entry, in %.

# inhibition at 3 µM (compound: CC(C)Oc1ccc(-c2ccc3ncc(-c4ccc(OC(C)C)cc4)n3c2)cc1 ) is 89

Hi team, please reply with inhibition at 3 µM for each item in this list.
1. Cc1cc2ncc(-c3ccc(OC(C)C)cc3)n2cc1-c1ccc(OC(C)C)cc1
2. CC(C)Oc1ccc(-c2ccc3ncc(-c4ccc(OC(C)(C)C)cc4)n3c2)cc1
3. CC(C)Oc1ccc(-c2cnc3ncc(-c4ccc(OC(C)C)cc4)n3c2)cc1
4. CC(C)Oc1ccc(-c2ccc3nnn(-c4ccc(OC(C)C)cc4)c3c2)cc1
5. CC(C)Oc1ccc(-c2ccc3ncn(-c4ccc(OC(C)C)cc4)c3c2)cc1
6. CC(C)Oc1ccc(-c2ccc3nnc(-c4ccc(OC(C)C)cc4)n3c2)cc1

[14, 48, 37, 17, 30, 57]

---

# System: Junin virus
# Experiment notes: Antiviral activity against Junin virus by virus yield reduction assay
# Assay type: functional, organism-based
# Condition description: Mammarenavirus juninense
Reported endpoint: EC50 (pM)
Give bare numbers, in pM.

Summary for this compound, Cc1cc2ncn(-c3ccc(OC(C)(C)C)cc3)c2cc1-c1ccc(OC(C)(C)O)cc1 : EC50 is 900

---
In plain terms, Cc1cc2ncc(-c3ccc(OC(C)(C)C)cc3)n2cc1-c1ccc(OC(C)C)cc1 has a documented EC50 of 600

---

Give measured pEC50 for each item. Keep answers brief.
# Test system: Lassa virus
# Experiment notes: Antiviral activity against Lassa virus by plaque reduction assay
# Type: functional, organism-based
# Condition description: Mammarenavirus lassaense
pEC50: −log10 of the molar value.

Consider the worked cases shown below.
Record summary for Cc1cc2ncn(-c3ccc(OC(C)C)cc3)c2cc1-c1ccc(OC(C)C)cc1 : reported pEC50 = > 8.48

Per the records, this compound ( Cc1cc2ncn(-c3ccc(OC(C)(C)C)cc3)c2cc1-c1ccc(OC(C)(C)O)cc1 ) has pEC50 equal to > 8.48

***
// recorded pEC50 for Cc1cc2ncc(-c3ccc(OC(C)(C)C)cc3)n2cc1-c1ccc(OC(C)C)cc1 : > 8.48
